tested system: furin, P09958;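 also: purified furin at 1:10 enzyme:substrate in 50 mM HEPES pH 7.5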
Sequence (P09958 whole entry): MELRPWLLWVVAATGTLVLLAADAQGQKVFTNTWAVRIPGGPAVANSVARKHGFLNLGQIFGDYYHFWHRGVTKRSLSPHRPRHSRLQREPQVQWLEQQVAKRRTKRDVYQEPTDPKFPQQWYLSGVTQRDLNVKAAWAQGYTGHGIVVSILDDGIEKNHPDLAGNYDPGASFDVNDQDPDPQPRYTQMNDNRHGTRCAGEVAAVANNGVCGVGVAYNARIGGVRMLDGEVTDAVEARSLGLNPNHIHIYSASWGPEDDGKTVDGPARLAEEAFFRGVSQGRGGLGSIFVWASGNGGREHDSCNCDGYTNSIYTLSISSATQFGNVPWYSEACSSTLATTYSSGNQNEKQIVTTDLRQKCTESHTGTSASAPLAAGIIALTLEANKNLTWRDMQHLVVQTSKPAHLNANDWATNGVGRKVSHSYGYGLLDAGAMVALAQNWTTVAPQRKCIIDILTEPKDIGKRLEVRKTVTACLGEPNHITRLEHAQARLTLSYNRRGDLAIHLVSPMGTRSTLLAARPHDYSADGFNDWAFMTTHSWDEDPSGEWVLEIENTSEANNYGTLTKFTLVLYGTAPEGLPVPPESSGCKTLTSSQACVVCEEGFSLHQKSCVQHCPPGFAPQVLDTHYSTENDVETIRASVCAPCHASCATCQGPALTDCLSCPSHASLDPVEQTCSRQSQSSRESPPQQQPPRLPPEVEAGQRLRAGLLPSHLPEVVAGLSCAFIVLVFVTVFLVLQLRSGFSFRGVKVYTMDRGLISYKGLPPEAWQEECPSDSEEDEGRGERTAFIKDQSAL
assay explanation: furin cleavage Z-score vs untreated control; higher = more cleavage, active = 3.5 or more, inactive = 1 or less, 8 variable residues between constant flanks
settings: 30 min
The other results are listed elsewhere or left out. The hit rate among all sequences tested is not known here.
Lab note: compare furin cleavage Z-score against -0.3. Equal or greater, write True. Smaller, write False.

Consider the worked cases shown below.
macromolecule sequence	cat
CAPCGIVPAKAGNASASA [HC407]	True
CARAKRRGGGAGNASASA [FS-2886]	True
CAGDIRVRRLAGNASASA [FS-423]	True
CAVVCCGMSYAGNASASA [HC102]	False
CARLVRPRRSAGNASASA [FS-952]	True

Alright, here's another sequence for you.
Test whether the sequence CACTRGVAKAAGNASASA [HC753] records furin cleavage Z-score of -0.3 or higher.
False
